Values were extracted from the supplement of paper PMC10126150.

tested on: ATP; assay: switch fluorescence ratio, 500 uM ATP over buffer (Cy3 cluster intensity, sum of 5 cycles each) (fold (ratio)); higher = stronger signal-on switching upon ATP binding; sequences stand for … in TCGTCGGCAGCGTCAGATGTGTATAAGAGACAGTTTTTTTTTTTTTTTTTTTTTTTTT…TC; conditions: aptamer strand: ATP DNA aptamer (quencher-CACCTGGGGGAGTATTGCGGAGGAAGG + anchor), 100 nM annealed; ATP concentration: 500 uM;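 further: ATP exposure 15 min at 22 °C before imaging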
Give switch fluorescence ratio for every item shown.
No unit in the answer, only the number.

Determine from records and report switch fluorescence ratio for `TGGGAATATG`
1

Let me know recorded switch fluorescence ratio for `CAGGGCGC` , thanks.
1.02

Please supply the value of reported switch fluorescence ratio for the item `TATTGGGCAT`
0.985

Fill in switch fluorescence ratio for record `CGTAGAGCGG`
1

Determine its reported switch fluorescence ratio: `GTATGGTCGG`
0.999

For `CTAGACAGTT` , write its switch fluorescence ratio.
0.997

Identify measured switch fluorescence ratio corresponding to `TAGCCTATTT`
0.975

Return the recorded switch fluorescence ratio value; entry: `GCTATAAGGG`
1

Return value of switch fluorescence ratio for input `GTCGGACATG` , no commentary.
0.993

Answer with the recorded switch fluorescence ratio for the sequence listed here: `TTTTTCTAAC`
0.996

Fill in switch fluorescence ratio for record `TGGGGGCAGC`
1.02

Respond only with switch fluorescence ratio recorded for `TCGGGGCCTT`
0.998

Name the recorded switch fluorescence ratio of the sequence listed here: `CTGGGGCGTC`
0.993

Answer with reported switch fluorescence ratio of `ATTTGGGAGA`
0.978

For the sequence `GCACTGAAGG` , give its measured switch fluorescence ratio value.
1.02

Recall and state the measured switch fluorescence ratio for `TCGAAGAAGT` .
0.997

Supply measured switch fluorescence ratio of `TCATTTGGAG` in your reply.
0.982

Supply measured switch fluorescence ratio of `TATATCAGTC` in your reply.
1.02

Indicate the recorded switch fluorescence ratio value for this sequence: `GGGTGGCGGT`
1.01

Give switch fluorescence ratio for `CTAAGCCCGG`
1

Let me know recorded switch fluorescence ratio for `AGGGTTATTT` , thanks.
0.998

Return value of switch fluorescence ratio for input `TTTACGTCAG` , no commentary.
1.01

Retrieve switch fluorescence ratio measured for `AATGACTCAT` and print it.
0.981

Read off the recorded switch fluorescence ratio for `GGCGCGCGGG`
0.991

Output switch fluorescence ratio of `TTAGTTTGTC`
0.986

Tell me switch fluorescence ratio reported for `TAGGGATTTC`
0.997

// fetch switch fluorescence ratio given entry `CAGGGTGCTG`
0.973

Entry `ATTCGTTAGA` needs its switch fluorescence ratio filled in; supply it.
0.999
